target: human α-thrombin (Homo sapiens); experiment: Determination of Ki: inhibition of human α-thrombin catalysed hydrolysis of chromogenic substrate S-2238; assay type: biochemical; details: Table 4; 37° C., substrate S-2238
pKi: −log10 of the molar value.
# cutoff 7 applies to pKi; >= gives Criterion met, < gives Criterion not met

Some solved entries appear below for comparison.
CCOP(=O)(OCC)C(OC(=O)[C@@H]1CCCN1C(=O)C(NC(=O)OCc1ccccc1)C(c1ccccc1)c1ccccc1)c1ccccc1 (mixture of isomers): Criterion not met
CCC(OC(=O)C1CCCN1C(=O)C(NC(=O)OCc1ccccc1)C(c1ccccc1)c1ccccc1)B1OC2CC3CC(C3(C)C)C2(C)O1 (stereo not shown): Criterion not met
CC1(C)C2CC3OB(C(Cc4ccccc4)OC(=O)C4CCCN4C(=O)[C@H](NC(=O)OCc4ccccc4)C(c4ccccc4)c4ccccc4)OC3(C)C1C2 (stereo partly shown): Criterion met

*Q* Given CC(C)C(OC(=O)C1CCCN1C(=O)C(NC(=O)OCc1ccccc1)C(c1ccccc1)c1ccccc1)B1OC2CC3CC(C3(C)C)C2(C)O1 (stereo not shown) , state whether its pKi is at least 7.
*A* Criterion not met

*Q* Record CCOP(=O)(OCC)C(OC(=O)C1CCCN1C(=O)C(NC(=O)OCc1ccccc1)C(c1ccccc1)c1ccccc1)c1ccc([N+](=O)[O-])cc1 (racemic) ; criterion: pKi no lower than 7. Met?
*A* Criterion not met
